This collection of values is drawn from the Human Domainome abundance scans (Beltran et al. 2025).

Collected abundance fitness values appear next to each entry.
B1: Tyrosine-protein kinase BTK, residues 215 to 273; numbered along this chain, Q06187 (parent)
chain: ELKKVVALYDYMPMNANDLQLRKGDEYFILEESNLPWWRARDKNGQEGYIPSNYVTEAE

Variants of: B1
Assay: abundance fitness (aPCA) (normalised: wild type 0, dead -1); higher = more abundant; growth selection in yeast, the domain comes from the species named
Settings: Homo sapiens
Could you respond with only the numeric value?

Example results:
- R39A: -0.179
- Y49S: -0.046

Look up abundance fitness for this variant: `E57R`
-0.065

Look up abundance fitness for this variant: `T56R`
0.012

Look up abundance fitness for this variant: `E47P`
-0.473

Look up abundance fitness for this variant: `L30A`
-0.12

Look up abundance fitness for this variant: `W37G`
-0.134

Look up abundance fitness for this variant: `K43F`
-0.11

Look up abundance fitness for this variant: `Q46G`
-0.036

Look up abundance fitness for this variant: `E31N`
-0.058
